B1: LINE1-mini (parent)
chain: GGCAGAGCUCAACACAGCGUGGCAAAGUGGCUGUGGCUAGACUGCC

Variants of: B1
test_details: self-cleavage, relative activity (ratio to wild type); higher = more cleavage; in vitro, sequencing; the parent is a self-cleaving ribozyme
self-cleavage values by entry
Provide a numeric answer; units are not to be included.

In the examples that follow, each entry is paired with its recorded self-cleavage.
sequence_data="GGCAGAGCUCAACACAGCGUGGCAAAGUGGCUGUGGCUGGAAUGCC [A39G C42A]" value_kind=self-cleavage obs_value=0.09
sequence_data="GGCAGAGCUCAAAACAGCGUGGCAAAGUGGCUGUGGCUAAACUGCC [C13A G40A]" value_kind=self-cleavage obs_value=0.09

Task item: For the variant GGCAGAGCUCAAAACAGAGUGGCAAAGUGGCUGUGGCUAGACUGCC [C13A C18A] , report self-cleavage.
Reply: 0.09
